System: MS2 coat protein
ASSAY: apparent KD of MS2 coat protein; designed switch direction (-1 OFF switch, 1 ON switch): 1; higher = weaker reporter binding
RUN_CONDITIONS: Eterna round: R95; input ligand: FMN 200 uM
QUANTITY: apparent KD of MS2 coat protein (nM)
Unit nM implied. Number only.

For GGAGAGAGAGCGCAGGAUAUUCAAGGAGAGACAUGAGGAUCACCCAUGUAAGAGAGAGAGGAGAGGGAGAAGGGUGAGAGAGAGG [Altered State 2-12 - Jieux - Same State 2] (puzzle: Same State 2) , write its apparent KD of MS2 coat protein.
28.5

Answer with the recorded apparent KD of MS2 coat protein of UGUUAACAUGAGGAUCACCCAUGUCAAAUGAAUGAAGGAUAUGGAAAGUAAUAAGAUGAACUAGAAGGUCAAGAUG [Altered State 1-22 - Jieux - Same State 1] (puzzle: Same State 1) only.
48.4

Answer with the recorded apparent KD of MS2 coat protein for the sequence listed here: GGGCCAGCUUGUGCUGGGCCUUCGCUUGCACAUGAGGAUCACCCAUGUCGUGUACAUGCUUGGUGCCCGUCUUUCCC [Photon Torp-15] (puzzle: Sensor for hsa-mir-208a)
182

Return the recorded apparent KD of MS2 coat protein value; entry: CGUCCGGCCUGUGCUGGCCGGUAGCUUGUACAUGAGGAUCACCCAUGUUCAUGUGCUGGCUUUUUGCUCGUCUUGUG [salish99_mir208a_017] (puzzle: Sensor for hsa-mir-208a)
283

Answer with the recorded apparent KD of MS2 coat protein of ACACUUGCACAUGAGGAUCACCCAUGUUGACAAGCUUUUUGCUCGUCUUAUAGAACAAAGAAGAAGAACAACAGAAA [Victory 2] (puzzle: Sensor for hsa-mir-208a version 2) only.
20.7

Report measured apparent KD of MS2 coat protein; entry is AGUCUACGGAAACGUAGACAGUGGAGCGUACAUGAGGAUCACCCAUGUCAUGUGAGAGCUACUUGUUCGUCUUGAGC [SENSOR #5] (puzzle: Sensor for hsa-mir-208a)
26.4

Look up and state reported apparent KD of MS2 coat protein for CUCAAAACAAGUUGCAGUGUUCGUCUUUAACAUGAGGAUCACCCAUGUAAUAACCCGGUGGAAGCGCUCGGGCCACC [Gereerle] (puzzle: Sensor for hsa-mir-208a)
25.7

Tell me apparent KD of MS2 coat protein reported for CUCAAACAUGAGGAUCACCCAUGUUUUUUCAUGGGAGGAUAUCUAAGUUCAUUAUAUUCAGGAGAAGGCCUAUCUC [× ×•×ª×• ×ž×“×™× ×” × ×—×ª-06] (puzzle: Same State 1)
54.5

Item GAGGAUGAUUUACAGGAUAUAUAGCAGAUGACAUGAGGAUCACCCAUGUAAGAGAAAGGAGGGAGAUAGAAGGGUAUGGGAGGUG [JR_SS2_Sub038] (puzzle: Same State 2) : provide apparent KD of MS2 coat protein
29.3

Kindly indicate its recorded apparent KD of MS2 coat protein. Item: GGAGAGAGAGCACAGGAUAUUAGAGGAGAGACAUGAGGAUCACCCAUGUAAGAGAGAGAGGAGAGUGAGAAGGGUGAGAGAGAGG [Altered State 2-19 - Jieux - Same State 2] (puzzle: Same State 2)
241

Supply reported apparent KD of MS2 coat protein belonging to this sequence: AUCAUAGUAGCGCAGGAUAUCCAGGUCGAGACAUGAGGAUCACCCAUGUCAGCAGGAGGACCAGAGGAGAAGGGUGAGAAAAUAA [Bimaan] (puzzle: Same State 2)
12.5

Specify apparent KD of MS2 coat protein for GACAAGCAGGCUUUUUUCUCGUAGUGUAAACAUGAGGAUCACCCAUGUGCCCGCCCUGGAUCUUUGGAUCGCAGGAA [Onlari] (puzzle: Sensor for hsa-mir-208a) and stop.
36.4

Identify measured apparent KD of MS2 coat protein associated with AACAAUCUAUCUGAGGAUAUCAUGAAAAAAACAUGAGGAUCACCCAUGUGCAGGAAAACUGCAUAUGAGAAGGCAGAUAGAUUGG [salish99_SS2_r3_003] (puzzle: Same State 2)
23.2

Annotate the sequence AGUCCAGCCUGAGCUGGACAAAAGCAUGUACAUGAGGAUCACCCAUGUCAUGUACAAGCUUUUUGCUCGUCAAAAUA [Mat - hsa-mir-208a - Mod of JL - D29] (puzzle: Sensor for hsa-mir-208a) with its measured apparent KD of MS2 coat protein.
396

Specify reported apparent KD of MS2 coat protein for the sequence shown: UGUUAACAUGAGGAUCACCCAUGUCAAAAGAAUCGAGGAUAUGGUAAGUAAUAAGAGAAUCUAGAAGGCGAAGUUG [Altered State 1-24 - Jieux - Same State 1] (puzzle: Same State 1)
42.7

Give recorded apparent KD of MS2 coat protein. AUAAAACAUGAGGAUCACCCAUGUCAACAAAGUCUAGGAUAUGGGCAAAUAAAAUAAGAACCAGAAGGCGAAUAAU [salish99_ss1_r3_051] (puzzle: Same State 1)
167

Specify reported apparent KD of MS2 coat protein for the sequence shown: AAUAGUUGCGGGCAGGAUAUGUAUUAAAAUACAUGAGGAUCACCCAUGUGCGGGUAUAACACCCGACAGAAGGGCCAAUCGCGAC [Mat - Same State 2 - Mod of UCT - D94] (puzzle: Same State 2)
25.7

Return apparent KD of MS2 coat protein for the following sequence: CUAAAACAUGAGGAUCACCCAUGUCAACAAAGUCGAGGAUAUGGGCAAAUAAAAUAAGAACCAGAAGGCGAAUAAU [salish99_SS1_r3_012] (puzzle: Same State 1)
42.3

Tell me apparent KD of MS2 coat protein reported for AUAAGUUUGAUGCUCGUCCCUCCGUACAGACAUGAGGAUCACCCAUGUAGUCGGGAAGUAGCCCGGCCAGUAUGGCC [Biraza] (puzzle: Sensor for hsa-mir-208a)
15.9

Entry GACAAUCUAUCUGAGGAUAUCAUGAAUAAAACAUGAGGAUCACCCAUGUGCAGGAUAACUGCAAAUGAGAAGGCAGAUAGAUUGG [Mat - Same State 2 - Mod - D9] (puzzle: Same State 2) needs its apparent KD of MS2 coat protein filled in; supply it.
9.21
